Provide the reported gG2 mAb binding to indicated antigen on solid phase: HBeAg of each item.
target: HBeAg (Hepatitis B virus genotype D subtype ayw); construct: containing nine residues of pre-core and the 150 first residues of HBcAg; made in house; experiment: Redirection of HSV gG2 mAb to HBeAg on solid phase by fusion peptide in solution; type: binding; details: fusion peptide in solution 20 μg/well
Sequence (P0C573 21-179): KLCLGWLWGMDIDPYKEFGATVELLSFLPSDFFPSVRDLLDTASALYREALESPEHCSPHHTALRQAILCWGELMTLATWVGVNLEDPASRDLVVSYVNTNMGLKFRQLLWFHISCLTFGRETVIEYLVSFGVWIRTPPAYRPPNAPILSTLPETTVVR

// known answers, use as guide
>  <SEQUENCE CONTENT>
VKLSCKASGYIFTSEHRGGPE [SEQ. ID. No. 73]

>  <RESULT VALUE>
0.029

$$$$
>  <SEQUENCE CONTENT>
QQKPGQPPKLLIKYASNLES (Synthetically prepared amino acid sequence) [Peptide 16]

>  <RESULT VALUE>
0.022

$$$$
>  <SEQUENCE CONTENT>
KLSCKASGYIFTSHRGGPEEF [SEQ. ID. No. 71]

>  <RESULT VALUE>
0.638

$$$$
>  <SEQUENCE CONTENT>
VKLSCKASGYIFTSHRGGPEE [SEQ. ID. No. 75]

>  <RESULT VALUE>
0.032

$$$$

Quick request: gG2 mAb binding to indicated antigen on solid phase: HBeAg for each listed item, please.
1. VKLSCKASGYIFTSHRGGPEE [SEQ. ID. No. 74]
2. VKLSCKASGYIFTSGGPEEFE [SEQ. ID. No. 76]
3. KLSCKASGYIFTSRGGPEEFE [SEQ. ID. No. 72]
4. KLSCKASGYIFTSEHRGGPEE [SEQ. ID. No. 70]

Result:
1. 1.727
2. 0.024
3. 0.040
4. 0.022

* * *

Molecular target: HBcAg (Hepatitis B virus genotype D subtype ayw, UniProt P03146)
Sequence (P03146 whole entry): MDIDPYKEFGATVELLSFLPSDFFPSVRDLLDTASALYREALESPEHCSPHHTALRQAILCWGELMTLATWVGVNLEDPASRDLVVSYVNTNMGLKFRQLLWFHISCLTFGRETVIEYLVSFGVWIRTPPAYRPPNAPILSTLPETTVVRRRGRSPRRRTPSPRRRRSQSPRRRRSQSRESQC
Details: deviation of the OD from the mean OD of all peptides
Procedure: In this experiment, microplates were coated overnight with 1 μg/ml HBcAg and, subsequently, a 100 μl mixture containing 5 μg of the peptide […] […] The HBcAg peptides were approximately 20 amino acids in length and corresponded to regions of HBcAg spanning amino acid residues 11-183. The experiment was performed in triplicate.
MEASUREMENT LABEL: Std. Deviation from the mean
Numbers only.

>  <SEQUENCE CONTENT>
CWGELMTLATWVGVNLEDPA [SEQ. ID. No. 101]

>  <MEASUREMENT LABEL>
Std. Deviation from the mean

>  <RESULT VALUE>
0.712

$$$$

Q: Can you look up the measured Std. Deviation from the mean of ATVELLSFLPSDFFPSVRDL [SEQ. ID. No. 96] for me?
Result: 0.696

* * *

target: HBcAg (Hepatitis B virus genotype D subtype ayw); details: HBcAg added at 5 μg/ml
MEASUREMENT LABEL: OD at 490 nm, HBcAg binding to support-bound amino terminal deletion peptides

>  <SUBSTANCE>
YSYMHWY [SEQ. ID. No. 64]

>  <STUDY SYSTEM>
HBcAg (Hepatitis B virus genotype D subtype ayw)

>  <RESULT VALUE>
0.245

$$$$
>  <SUBSTANCE>
LSCKASGYIFTS [SEQ. ID. No. 46]

>  <STUDY SYSTEM>
HBcAg (Hepatitis B virus genotype D subtype ayw)

>  <RESULT VALUE>
0.565

$$$$
>  <SUBSTANCE>
ASQSVSTSSYSYMHWY [SEQ. ID. No. 56]

>  <STUDY SYSTEM>
HBcAg (Hepatitis B virus genotype D subtype ayw)

>  <RESULT VALUE>
0.324

$$$$
>  <SUBSTANCE>
SCRASQSVSTSSYSYMHWY [SEQ. ID. No. 53]

>  <STUDY SYSTEM>
HBcAg (Hepatitis B virus genotype D subtype ayw)

>  <RESULT VALUE>
1.452

$$$$
>  <SUBSTANCE>
SCKASGYIFTS [SEQ. ID. No. 47]

>  <STUDY SYSTEM>
HBcAg (Hepatitis B virus genotype D subtype ayw)

>  <RESULT VALUE>
0.297

$$$$
>  <SUBSTANCE>
PGASVKLSCKASGYIFTS [SEQ. ID. No. 40]

>  <STUDY SYSTEM>
HBcAg (Hepatitis B virus genotype D subtype ayw)

>  <RESULT VALUE>
1.722

$$$$

Quick request: OD at 490 nm, HBcAg binding to support-bound amino terminal deletion peptides for each listed item, please.
1. SVSTSSYSYMHWY [SEQ. ID. No. 59]
2. KASGYIFTS [SEQ. ID. No. 49]
3. KLSCKASGYIFTS [SEQ. ID. No. 45]

Result:
1: 0.305; 2: 0.237; 3: 3.694
